assay: in vitro; conditions: mouse, pH 7.4
measure_name: viability (%)

>>> assay_result("OC[C@H]1O[C@H](O[C@H]2O[C@H](CO)[C@@H](O)[C@H](O)[C@H]2O)[C@H](O)[C@@H](O)[C@@H]1O [Trehalose, trehalose]")
10
